Source of measurements: patent US5262417A

Tested on: Acinetobacter calcoaceticus
Protocol: Minimum inhibitory concentration (MIC) by agar dilution
Assay type: cell-based
Condition context: Acinetobacter calcoaceticus, 20 h, read-out: MINIMUM INHIBITORY CONCENTRATION, Cult No. 12170, MHA
Readout label: MIC (µg/mL)

> print(dat)
                                   molecule  reported
1  NC1CCN(c2c(F)cc3c(=O)c(C(=O)O)cn(C45CC(C4)C5)c3c2F)C1 (racemic) [No. 84]     0.125
2  CN1CCN(c2c(F)cc3c(=O)c(C(=O)O)cn(C45CC(C4)C5)c3c2F)CC1 [No. 99]     0.125
3  O=C(O)c1cn(C23CC(C2)C3)c2c(F)c(N3CCNCC3)c(F)cc2c1=O [No. 1]      0.25
4  O=C(O)c1cn(C23CC(C2)C3)c2nc(N3CCNCC3)c(F)cc2c1=O [No. 4]      0.25
5  O=C(O)c1cn(C23CC(C2)C3)c2c(F)c(N3CCC(O)C3)c(F)cc2c1=O (stereo not drawn) [No. 3]      0.25
6  O=C(O)c1cn(C2CC2)c2cc(N3CCNCC3)c(F)cc2c1=O [Ciprofloxacin, reference compound]      0.25
7  O=C(O)c1cn(C23CC(C2)C3)c2nc(N3CCC(O)C3)c(F)cc2c1=O (racemic) [No. 91]       0.5
8  O=C(O)c1cn(C23CC(C2)C3)c2cc(N3CCNCC3)c(F)cc2c1=O [No. 2]       0.5
9  NC1CCN(c2nc3c(cc2F)c(=O)c(C(=O)O)cn3C23CC(C2)C3)C1 (racemic) [No. 36]     0.125

---

Test system: Pseudomonas aeruginosa
Protocol: Minimum inhibitory concentration (MIC) by agar dilution
Assay type: cell-based
Condition context: Pseudomonas aeruginosa, 20 h, read-out: MINIMUM INHIBITORY CONCENTRATION, Cult No. 9191, MHA
Experimental: The antibacterial activity of the compounds of Formula IC was determined by using standard testing procedures such as the determination of minimum inhibitory concentration (MIC) by agar dilution as described in "Methods for Dilution Antimicrobial Susceptibility Tests for Bacteria That Grow Aerobically" (MFT) published January 1983 by the National Committee for Clinical Laboratory Standards, 771 East Lancaster Avenue, Villanova, Pa. 19084, USA. […]
Let's look at some molecules and their measured MIC.
Readout label: MIC (mg/L)

> print(dat)
                                   molecule  reported
1  CN1CCN(c2c(F)cc3c(=O)c(C(=O)O)cn(C45CC(C4)C5)c3c2F)CC1         4
2  NC1CCN(c2nc3c(cc2F)c(=O)c(C(=O)O)cn3C23CC(C2)C3)C1 (racemic)       0.5
3  O=C(O)c1cn(C23CC(C2)C3)c2nc(N3CCC(O)C3)c(F)cc2c1=O (racemic)         2
4  O=C(O)c1cn(C23CC(C2)C3)c2c(F)c(N3CCNCC3)c(F)cc2c1=O         1
5  NC1CCN(c2c(F)cc3c(=O)c(C(=O)O)cn(C45CC(C4)C5)c3c2F)C1 (racemic)       0.5
6  O=C(O)c1cn(C23CC(C2)C3)c2nc(N3CCNCC3)c(F)cc2c1=O         1
7  O=C(O)c1cn(C2CC2)c2cc(N3CCNCC3)c(F)cc2c1=O [Ciprofloxacin, reference compound]      0.25
8  O=C(O)c1cn(C23CC(C2)C3)c2c(F)c(N3CCC(O)C3)c(F)cc2c1=O (stereo not drawn)         2
9  O=C(O)c1cn(C23CC(C2)C3)c2cc(N3CCNCC3)c(F)cc2c1=O         2
